B1: tRNA (parent)
chain: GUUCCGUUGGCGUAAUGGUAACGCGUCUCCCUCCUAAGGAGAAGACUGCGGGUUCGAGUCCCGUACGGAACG

- Variants of: B1
- Protocol Details: yeast fitness relative to wild type (ratio to wild type); higher = fitter; tRNA-Arg(CCU), competitive growth, 37 C, YPD
Fewer inactive variants are shown than the library holds.
Reported Endpoint: yeast fitness

Please review the entries below; each comes with its answer.
{"Var": "A20C C22G C60A", "Reported Endpoint": "yeast fitness", "Observed": "≤ 0.5"}
{"Var": "C11G A15G C22A U26A C55G", "Reported Endpoint": "yeast fitness", "Observed": "≤ 0.5"}
{"Var": "U13A U28A C31U G39A A57G", "Reported Endpoint": "yeast fitness", "Observed": "≤ 0.5"}
{"Var": "G10A C29A C34G A43C C60G C66U", "Reported Endpoint": "yeast fitness", "Observed": "≤ 0.5"}
{"Var": "C22G U28A A37C A42C C46A", "Reported Endpoint": "yeast fitness", "Observed": "≤ 0.5"}
{"Var": "U3G C5U G51A", "Reported Endpoint": "yeast fitness", "Observed": "≤ 0.5"}
{"Var": "U8C C22U C30U C33U A45C", "Reported Endpoint": "yeast fitness", "Observed": "≤ 0.5"}
{"Var": "U19C C29G A40C", "Reported Endpoint": "yeast fitness", "Observed": "≤ 0.5"}

The variant listed as C5U C11G C24U A42C A65C A70U shows yeast fitness equal to ≤ 0.5

// U16G G38A U54C A65U : yeast fitness value = ≤ 0.5

In plain terms, U3G C11G A65U C66U has a documented yeast fitness of ≤ 0.5

Memo: C5G U7A A42C , reported yeast fitness: ≤ 0.5

// yeast fitness lookup, variant = U28G C33G C49U G68C A69U , result: ≤ 0.5

Record summary for U13C U16A A57U : reported yeast fitness = ≤ 0.5

The reported yeast fitness of the variant G17A C22G C27A A36G was ≤ 0.5
